FYI, the data here is from paper PMC9747611.

- assay-summary: Plasma pharmacokinetics of baxdrostat and CIN-107-M, multiple ascending dose phase 1 study
- Assay type: in vivo, human
- condition-context: human, plasma, po, 0.5 mg, 0.5 mg oral once daily, normal-salt diet, day 10, mean ± SD; read-out: t1/2 (converted)
measured-quantity: half-life (h)
One number for each entry, in h.

Briefly, half-life measured for CCC(=O)N[C@@H]1CCCc2c(-c3ccc4c(c3)CCC(=O)N4C)cncc21 [baxdrostat] : 31.2

----------
- assay-summary: Plasma pharmacokinetics of baxdrostat and CIN-107-M, multiple ascending dose phase 1 study
- Assay type: in vivo, human
- condition-context: human, plasma, po, 0.5 mg, 0.5 mg oral once daily, normal-salt diet, day 10; read-out: Tmax,D10, median (min, max)
measured-quantity: Tmax (h)
Give bare numbers, in h.

Briefly, Tmax measured for CCC(=O)N[C@@H]1CCCc2c(-c3ccc4c(c3)CCC(=O)N4C)cncc21 : 2
